experiment.notes: protein stability index of a GFP-peptide fusion (yeast GPS) (PSI 1-4); higher = more stable; sorted into four equal gates, so the index is relative within each strain
condition.notes: san1∆
Note to self: values exactly at 3 are y. So protein stability index at or above 3 is y, below is n.

Example cases with answers are listed next.
INGEDPANNHQLGLQTV [SMX2]
n
RELLVEGYGLRDVMCTD [RPO31]
n
FEKNTILQQRSKINSTE [MED4]
n

Is the recorded value of protein stability index equal to or greater than 3 for this sequence? EREIKRRKFDPSSSENV [UBP6] y

###

experiment.notes: protein stability index of a GFP-peptide fusion (yeast GPS) (PSI 1-4); higher = more stable; sorted into four equal gates, so the index is relative within each strain
condition.notes: san1∆
A collection of sequences and their measured protein stability index
Answer field: number only, no words.

KANISLETLEHNGAPHH [RPO21]
3.19
NTFVTRLNNVFVIGEQG [RPS4A]
3.22
SVINVSAQRDRRYRKRV [RPS17A]
1.71
HESYCLPMDTNLFKINS [YMR129W/POM152]
1.74
AHTASVGVVFGSGAANE [COR1]
3.07

Could you please provide reported protein stability index for CPEEFAESMCQELELPG [SNF5] ? Thanks! 2.71

Could you please provide reported protein stability index for KEAALKTMIKTIEKDKM [SMC2] ? Thanks! 1.57

Could you please provide reported protein stability index for SAGAVFKSSVEMGKTDK [YOR098C/NUP1] ? Thanks! 3.29

Could you please provide reported protein stability index for YILRYLHANGASFFFMV [COB] ? Thanks! 1.39

Could you please provide reported protein stability index for EKVILVQEQLSKNRIIV [RET1] ? Thanks! 1.5

Could you please provide reported protein stability index for INYQVDSKLLPKNIEPP [SWI3] ? Thanks! 2.58

Could you please provide reported protein stability index for QREAAAEYAQLLAKRLS [RPS6A] ? Thanks! 1.7

Could you please provide reported protein stability index for AAKIIYLAHEDNKEKDF [PRE10] ? Thanks! 3.25

Could you please provide reported protein stability index for HLGKGTMTMDVFNDAHV [RPN1] ? Thanks! 2.06
